System: Bone marrow-derived CD34-positive cells (CD41-positive megakaryocytes)
METHOD NOTES: Inhibition of differentiation from CD34-positive cells toward megakaryocytes (HemaTox Megakaryocyte Kit, flow cytometry)
Type: cell-based
EXPERIMENTAL SETUP: 240 h; cultured 10 days, three donors, control as 100%; 95% confidence interval 10.3-23.7 nmol/L; read-out: 50% inhibitory concentration (IC50), number of CD41-positive megakaryocytes
pIC50: −log10 of the molar value.
MEASURED PARAMETER: pIC50

MOLECULE	RECORDED RESULT
C[C@@H]1CC(=O)NN=C1c1ccc(OCC(C)(C)O)c(F)c1F	7.77
